measuredTarget: Poly [ADP-ribose] polymerase 1 (Homo sapiens, UniProt P09874)
Sequence (P09874 whole entry): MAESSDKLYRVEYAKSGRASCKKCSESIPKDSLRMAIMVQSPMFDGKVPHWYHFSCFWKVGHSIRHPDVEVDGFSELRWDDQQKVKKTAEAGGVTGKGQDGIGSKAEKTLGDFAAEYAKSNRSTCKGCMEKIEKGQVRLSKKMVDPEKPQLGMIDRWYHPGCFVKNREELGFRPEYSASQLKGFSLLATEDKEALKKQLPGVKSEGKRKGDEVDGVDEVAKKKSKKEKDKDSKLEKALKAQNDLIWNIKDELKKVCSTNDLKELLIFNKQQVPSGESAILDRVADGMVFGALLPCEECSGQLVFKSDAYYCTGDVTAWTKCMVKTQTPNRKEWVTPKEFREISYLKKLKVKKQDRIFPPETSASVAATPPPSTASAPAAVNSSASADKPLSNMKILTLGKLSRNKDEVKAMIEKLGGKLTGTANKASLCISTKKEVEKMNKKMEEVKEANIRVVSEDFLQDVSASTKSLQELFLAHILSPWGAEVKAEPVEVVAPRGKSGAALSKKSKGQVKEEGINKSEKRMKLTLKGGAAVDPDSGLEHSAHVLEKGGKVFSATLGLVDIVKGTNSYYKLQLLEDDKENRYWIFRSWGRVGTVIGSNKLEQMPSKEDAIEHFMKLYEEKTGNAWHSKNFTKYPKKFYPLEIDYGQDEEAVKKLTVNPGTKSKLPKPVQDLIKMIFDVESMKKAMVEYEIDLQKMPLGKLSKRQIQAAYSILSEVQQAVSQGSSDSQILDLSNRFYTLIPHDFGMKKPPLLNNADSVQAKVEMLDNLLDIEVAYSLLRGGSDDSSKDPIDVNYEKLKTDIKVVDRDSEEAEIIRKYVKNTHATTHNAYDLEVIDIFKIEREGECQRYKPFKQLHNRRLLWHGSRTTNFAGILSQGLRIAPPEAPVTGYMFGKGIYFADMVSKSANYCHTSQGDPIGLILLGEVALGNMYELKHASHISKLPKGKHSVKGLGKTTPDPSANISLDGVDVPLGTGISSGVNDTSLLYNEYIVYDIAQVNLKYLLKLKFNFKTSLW
pIC50: −log10 of the molar value.
Decision: pIC50 >= 7 yields Y, all other cases yield N.

Below, 3 compounds whose answers are already recorded.
{"columns": ["compound", "discreteLabel"],
 "data": [
  ["O=C1C2CC2C(=O)N1c1cc(Cc2nnc(O)c3ccccc23)ccc1F (stereo not given)", "Y"],
  ["CCC(=O)Nc1cccc(Cc2n[nH]c(=O)c3ccccc23)c1", "Y"],
  ["O=C1c2ccccc2C(=O)N1c1cccc(Cc2n[nH]c(=O)c3ccccc23)c1", "N"]
]}

Okay, now this compound:
Hi, just wondering whether Cc1nc(-c2ccccc2)sc1C(=O)Nc1cccc(Cc2n[nH]c(=O)c3ccccc23)c1 shows pIC50 of 7 or higher.
Y

====

measuredTarget: Poly [ADP-ribose] polymerase 1 (Homo sapiens, UniProt P09874)
pIC50: −log10 of the molar value.
Decision: pIC50 >= 7 yields MET, all other cases yield NOT MET.

Hi, just wondering whether O=C(Nc1cccc(Cc2nnc(O)c3ccccc23)c1)C(F)(F)F shows pIC50 of 7 or higher.
MET

====

experimentalDetails: In vitro metabolic stability was measured in mouse liver microsomes
Type: ADME, Microsome
This listing pairs compounds with measured Cli.

Some compounds with known Cli results, for comparison:
{"columns": ["compoundSmiles", "Cli"],
 "data": [
  ["O=C1CCCN1c1cccc(Cc2n[nH]c(=O)c3ccccc23)c1", "4.9 ml min-1 g-1 liver"],
  ["O=C(Nc1cccc(Cc2nnc(O)c3ccccc23)c1)C(F)(F)F", "> 50 ml min-1 g-1 liver"],
  ["O=C1CCC(=O)N1c1cc(Cc2n[nH]c(=O)c3ccccc23)ccc1F", "< 1 ml min-1 g-1 liver"],
  ["CCC(=O)Nc1cccc(Cc2n[nH]c(=O)c3ccccc23)c1", "12 ml min-1 g-1 liver"]
]}

Please examine the following record next.
Any idea what Cli was measured for CCNC(=O)c1cccc(Cc2n[nH]c(=O)c3ccccc23)c1 ?
< 1 ml min-1 g-1 liver

====

measuredTarget: Poly [ADP-ribose] polymerase 1 (Homo sapiens, UniProt P09874)
pIC50: −log10 of the molar value.
Decision: pIC50 >= 7 yields Criterion met, all other cases yield Criterion not met.

Below, 4 compounds whose answers are already recorded.
{"columns": ["compoundSmiles", "discreteLabel"],
 "data": [
  ["O=C(Nc1cccc(Cc2nnc(O)c3ccccc23)c1)c1ccc(-n2cccn2)nc1", "Criterion met"],
  ["COc1ccc(-n2cc(C(=O)Nc3cccc(Cc4n[nH]c(=O)c5ccccc45)c3)c(C)n2)cc1", "Criterion met"],
  ["CCCNC(=O)Nc1cccc(Cc2n[nH]c(=O)c3ccccc23)c1", "Criterion not met"],
  ["Cc1noc(-c2cccc(Cc3nnc(O)c4ccccc34)c2)n1", "Criterion not met"]
]}

Okay, now this compound:
Hi, just wondering whether O=C(Nc1cccc(Cc2n[nH]c(=O)c3ccccc23)c1)c1ccc(-c2ccsc2)s1 shows pIC50 of 7 or higher.
Criterion met
